# TEST SUMMARY: in vivo
# Parameters: species or system mice
# MEASUREMENT SETUP: C57, mouse, iv, 0.037 MBq, total radioactivity, Bone uptake
Positions of bridges follow the written chain, without caps; N, C: chain ends. Non-standard residues stand in square brackets, D forms with d. Residues, ends and D or L forms follow the SMILES beside them. *: point of attachment. NOTA = O=C(O)CN1CCN(CC(=O)O)CCN(CC(=O)*)CC1; Nle = CCCC[C@H](N)C(=O)O
Reported tissue uptake at 0.5 h by item:
RESULT TYPE: tissue uptake at 0.5 h (%ID/g)

CCCC[C@H](NC(=O)COCCOCCNC(=O)CN1CCN(CC(=O)O)CCN(CC(=O)O)CC1)C(=O)N[C@H]1CC(=O)NCCCC[C@@H](C(N)=O)NC(=O)[C@H](Cc2c[nH]c3ccccc23)NC(=O)[C@H](CCCNC(=N)N)NC(=O)[C@@H](Cc2ccccc2)NC(=O)[C@H](Cc2c[nH]cn2)NC1=O [^67Cu-NOTA-PEG2Nle-CycMSHhex, metal not drawn]; 0.6
CCCC[C@H](NC(=O)CNC(=O)CNC(=O)CN1CCN(CC(=O)O)CCN(CC(=O)O)CC1)C(=O)N[C@H]1CC(=O)NCCCC[C@@H](C(N)=O)NC(=O)[C@H](Cc2c[nH]c3ccccc23)NC(=O)[C@H](CCCNC(=N)N)NC(=O)[C@@H](Cc2ccccc2)NC(=O)[C@H](Cc2c[nH]cn2)NC1=O [^67Cu-NOTA-GGNle-CycMSHhex, ^67Cu-NOTA-GlyGlyNle-CycMSHhex, metal not drawn] ({NOTA}-GG[Nle]DH[dF]RWK-NH2; lactam 4-9); 0.68

----------
# TEST SUMMARY: in vivo
# Set-up: species or system mice
# MEASUREMENT SETUP: C57, mouse, iv, 0.037 MBq, total radioactivity
# Description: All animal studies were conducted in compliance with Institutional Animal Care and Use Committee approval. C57 mice were purchased from Charles River Laboratory (Wilmington, NC). […] The tumor uptake specificity of ^67Cu-NOTA-PEG2Nle-CycMSHhex and ^67Cu-NOTA-GGNle-CycMSHhex was determined by co-injecting 10 μg (6.07 nmol) of unlabeled NDP-MSH. Mice were sacrificed at 0.5, 2, 4, and 24 h post-injection, and tumors and organs of interest were harvested, weighed, and counted. […]
Positions of bridges follow the written chain, without caps; N, C: chain ends. Non-standard residues stand in square brackets, D forms with d. Residues, ends and D or L forms follow the SMILES beside them. *: point of attachment. NOTA = O=C(O)CN1CCN(CC(=O)O)CCN(CC(=O)*)CC1; Nle = CCCC[C@H](N)C(=O)O
# tissue uptake dose at 24 h values compiled below
RESULT TYPE: tissue uptake dose at 24 h (%ID)

CCCC[C@H](NC(=O)CNC(=O)CNC(=O)CN1CCN(CC(=O)O)CCN(CC(=O)O)CC1)C(=O)N[C@H]1CC(=O)NCCCC[C@@H](C(N)=O)NC(=O)[C@H](Cc2c[nH]c3ccccc23)NC(=O)[C@H](CCCNC(=N)N)NC(=O)[C@@H](Cc2ccccc2)NC(=O)[C@H](Cc2c[nH]cn2)NC1=O [^67Cu-NOTA-GGNle-CycMSHhex, ^67Cu-NOTA-GlyGlyNle-CycMSHhex, metal not drawn] ({NOTA}-GG[Nle]DH[dF]RWK-NH2; lactam 4-9); 0.94
CCCC[C@H](NC(=O)COCCOCCNC(=O)CN1CCN(CC(=O)O)CCN(CC(=O)O)CC1)C(=O)N[C@H]1CC(=O)NCCCC[C@@H](C(N)=O)NC(=O)[C@H](Cc2c[nH]c3ccccc23)NC(=O)[C@H](CCCNC(=N)N)NC(=O)[C@@H](Cc2ccccc2)NC(=O)[C@H](Cc2c[nH]cn2)NC1=O [^67Cu-NOTA-PEG2Nle-CycMSHhex, metal not drawn]; 0.77

----------
# tissue to tissue ratio at 0.5 h per entry
# TEST SUMMARY: in vivo
# Set-up: species or system mice
# MEASUREMENT SETUP: C57, mouse, iv, 0.037 MBq, total radioactivity, Uptake ratio Tumor/lung
# Procedure: All animal studies were conducted in compliance with Institutional Animal Care and Use Committee approval. C57 mice were purchased from Charles River Laboratory (Wilmington, NC). […] The tumor uptake specificity of ^67Cu-NOTA-PEG2Nle-CycMSHhex and ^67Cu-NOTA-GGNle-CycMSHhex was determined by co-injecting 10 μg (6.07 nmol) of unlabeled NDP-MSH. Mice were sacrificed at 0.5, 2, 4, and 24 h post-injection, and tumors and organs of interest were harvested, weighed, and counted. […]
Positions of bridges follow the written chain, without caps; N, C: chain ends. Non-standard residues stand in square brackets, D forms with d. Residues, ends and D or L forms follow the SMILES beside them. *: point of attachment. NOTA = O=C(O)CN1CCN(CC(=O)O)CCN(CC(=O)*)CC1; Nle = CCCC[C@H](N)C(=O)O
RESULT TYPE: tissue to tissue ratio at 0.5 h

CCCC[C@H](NC(=O)CNC(=O)CNC(=O)CN1CCN(CC(=O)O)CCN(CC(=O)O)CC1)C(=O)N[C@H]1CC(=O)NCCCC[C@@H](C(N)=O)NC(=O)[C@H](Cc2c[nH]c3ccccc23)NC(=O)[C@H](CCCNC(=N)N)NC(=O)[C@@H](Cc2ccccc2)NC(=O)[C@H](Cc2c[nH]cn2)NC1=O [^67Cu-NOTA-GGNle-CycMSHhex, ^67Cu-NOTA-GlyGlyNle-CycMSHhex, metal not drawn] ({NOTA}-GG[Nle]DH[dF]RWK-NH2; lactam 4-9); 30.7
CCCC[C@H](NC(=O)COCCOCCNC(=O)CN1CCN(CC(=O)O)CCN(CC(=O)O)CC1)C(=O)N[C@H]1CC(=O)NCCCC[C@@H](C(N)=O)NC(=O)[C@H](Cc2c[nH]c3ccccc23)NC(=O)[C@H](CCCNC(=N)N)NC(=O)[C@@H](Cc2ccccc2)NC(=O)[C@H](Cc2c[nH]cn2)NC1=O [^67Cu-NOTA-PEG2Nle-CycMSHhex, metal not drawn]; 11.6

----------
# TEST SUMMARY: in vivo
# Design: species or system mice
# MEASUREMENT SETUP: C57, mouse, iv, 0.037 MBq, total radioactivity, Uptake ratio Tumor/muscle
Positions of bridges follow the written chain, without caps; N, C: chain ends. Non-standard residues stand in square brackets, D forms with d. Residues, ends and D or L forms follow the SMILES beside them. *: point of attachment. NOTA = O=C(O)CN1CCN(CC(=O)O)CCN(CC(=O)*)CC1; Nle = CCCC[C@H](N)C(=O)O
RESULT TYPE: tissue to tissue ratio at 2 h

CCCC[C@H](NC(=O)CNC(=O)CNC(=O)CN1CCN(CC(=O)O)CCN(CC(=O)O)CC1)C(=O)N[C@H]1CC(=O)NCCCC[C@@H](C(N)=O)NC(=O)[C@H](Cc2c[nH]c3ccccc23)NC(=O)[C@H](CCCNC(=N)N)NC(=O)[C@@H](Cc2ccccc2)NC(=O)[C@H](Cc2c[nH]cn2)NC1=O [^67Cu-NOTA-GGNle-CycMSHhex, ^67Cu-NOTA-GlyGlyNle-CycMSHhex, metal not drawn] ({NOTA}-GG[Nle]DH[dF]RWK-NH2; lactam 4-9); 292
CCCC[C@H](NC(=O)COCCOCCNC(=O)CN1CCN(CC(=O)O)CCN(CC(=O)O)CC1)C(=O)N[C@H]1CC(=O)NCCCC[C@@H](C(N)=O)NC(=O)[C@H](Cc2c[nH]c3ccccc23)NC(=O)[C@H](CCCNC(=N)N)NC(=O)[C@@H](Cc2ccccc2)NC(=O)[C@H](Cc2c[nH]cn2)NC1=O [^67Cu-NOTA-PEG2Nle-CycMSHhex, metal not drawn]; 34.5

----------
# TEST SUMMARY: in vivo
# Parameters: species or system mice
# MEASUREMENT SETUP: C57, mouse, iv, total radioactivity, Uptake ratio Tumor/lung
Positions of bridges follow the written chain, without caps; N, C: chain ends. Non-standard residues stand in square brackets, D forms with d. Residues, ends and D or L forms follow the SMILES beside them. *: point of attachment. NOTA = O=C(O)CN1CCN(CC(=O)O)CCN(CC(=O)*)CC1; Nle = CCCC[C@H](N)C(=O)O
Documented tissue to tissue ratio at 2 h across a set of compounds
RESULT TYPE: tissue to tissue ratio at 2 h

CCCC[C@H](NC(=O)COCCOCCNC(=O)CN1CCN(CC(=O)O)CCN(CC(=O)O)CC1)C(=O)N[C@H]1CC(=O)NCCCC[C@@H](C(N)=O)NC(=O)[C@H](Cc2c[nH]c3ccccc23)NC(=O)[C@H](CCCNC(=N)N)NC(=O)[C@@H](Cc2ccccc2)NC(=O)[C@H](Cc2c[nH]cn2)NC1=O [^67Cu-NOTA-PEG2Nle-CycMSHhex, metal not drawn]; 2.44
CCCC[C@H](NC(=O)CNC(=O)CNC(=O)CN1CCN(CC(=O)O)CCN(CC(=O)O)CC1)C(=O)N[C@H]1CC(=O)NCCCC[C@@H](C(N)=O)NC(=O)[C@H](Cc2c[nH]c3ccccc23)NC(=O)[C@H](CCCNC(=N)N)NC(=O)[C@@H](Cc2ccccc2)NC(=O)[C@H](Cc2c[nH]cn2)NC1=O [^67Cu-NOTA-GGNle-CycMSHhex, ^67Cu-NOTA-GlyGlyNle-CycMSHhex, metal not drawn] ({NOTA}-GG[Nle]DH[dF]RWK-NH2; lactam 4-9); 2.44

All values here come from paper PMC10216305.
